SYSTEM_UNDER_TEST: HIV-1 nucleocapsid protein (NC) (HIV-1 NL4-3, UniProt P12493 378-432)
PROCEDURE_SUMMARY: ITC
MEASURED_ENDPOINT: pKd
Interpret pKd as the negative base-10 log of the concentration measured in mol/L.

The recorded pKd for entry UGUUCCCUUCU (ssRNA) [U5GUU (G108U;G112U)] equals 6.06

Values were extracted from paper PMC2646082.
